Entry source: patent US20190315854A1

# Subject of test: T1, sIL-6R (soluble IL-6 receptor; SBH Sciences) (human, UniProt P08887 20-365)
# T1 construct: also called human IL-6R
# T1 sequence: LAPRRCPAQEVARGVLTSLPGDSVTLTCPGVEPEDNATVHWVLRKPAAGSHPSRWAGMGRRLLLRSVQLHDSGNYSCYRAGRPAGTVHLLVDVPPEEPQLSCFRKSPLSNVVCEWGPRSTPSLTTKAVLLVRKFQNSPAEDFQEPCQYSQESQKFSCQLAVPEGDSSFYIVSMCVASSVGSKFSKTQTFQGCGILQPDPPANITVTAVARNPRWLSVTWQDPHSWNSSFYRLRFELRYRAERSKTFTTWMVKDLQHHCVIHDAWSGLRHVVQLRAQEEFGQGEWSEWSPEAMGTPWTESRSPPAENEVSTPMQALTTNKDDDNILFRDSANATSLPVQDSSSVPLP
# Assay name: SPR (BIAcore 3000), antibody on chip, sIL-6R analyte, pH 6.0
# Experimental: All SPR measurements were performed on a BIAcore 3000 instrument (GE Biosciences, Piscataway, N.J.). BIAcore Software-BIAcore 3000 Control Software V3.2 was used for the operation and control of the BIAcore 3000 instrument. […] Data was analyzed by using the Kinetics Wizard and the manual fitting programs that are both included with the BiaEvaluation Software V4.1. […]
Measured attribute: pKd
Notebook: values listed as pKd are -log10 of the concentration (mol/L).

231# (antibody, human IgG1, kappa, V domains shown, also called Sample # 231) VH: QVQLQESGPGLVRPSQTLSLTCTVSGYSITSDHAWSWVRQPPGRGLEWIGYISYSGITTYNPSLKSRVTMLRDTSKNQFSLRLSSVTAADTAVYYCARTLARMTAIDFWGQGSLVTVSS VL: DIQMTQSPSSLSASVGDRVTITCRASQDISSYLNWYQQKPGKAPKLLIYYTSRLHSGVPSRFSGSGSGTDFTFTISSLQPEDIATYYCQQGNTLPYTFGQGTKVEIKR: 9.97
209# (antibody, human IgG1, kappa, V domains shown, also called Sample # 209) VH: QVQLQESGPGLVRPSQTLSLTCTVSGYSITSDHAWSWVRQPPGRGLEWIGFISYSGMTTYNPSLKSRVTMLRDTSKNQFSLRLSSVTAADTAVYYCARSLARITAIDFWGQGSLVTVSS VL: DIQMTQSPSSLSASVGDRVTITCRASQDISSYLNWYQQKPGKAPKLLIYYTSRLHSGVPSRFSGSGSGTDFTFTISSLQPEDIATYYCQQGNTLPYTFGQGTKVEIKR: 10.36

Next binder, pKd to be filled in.
Record Tocilizumab (antibody, human IgG1, kappa, V domains shown, also called 25; 25(control)) VH: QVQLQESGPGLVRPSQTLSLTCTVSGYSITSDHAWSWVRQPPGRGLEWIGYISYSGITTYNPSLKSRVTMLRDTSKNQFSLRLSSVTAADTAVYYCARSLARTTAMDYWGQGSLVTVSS VL: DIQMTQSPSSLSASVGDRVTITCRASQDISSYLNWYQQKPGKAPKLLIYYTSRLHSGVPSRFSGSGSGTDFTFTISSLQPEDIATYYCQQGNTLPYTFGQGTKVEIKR . Reported pKd: 8.75
